Molecular target: S1
Assay: BLI
RECORDED_ENDPOINT: pKd
Please keep in mind that pKd is minus log10 of the molar concentration; only the number is needed.

Read the entry Ab 15 (Fc fusion) VH: QVQLVQSGGGLVKPGRSLRLSCTASGFTFGDYAMSWFRQAPGKGLEWVGFIRSKAYGGTTGYAASVKGRFTISRDDSKSIAYLQMNSLKTEDTAVYYCTTADDDMDVWGKGTTVTVSS VL: NFMLTQPHSVSESPGKTVTISCTRSSGTIASNYVQWYQQRPGSAPTTVIYEDNQRPSGVPDRFSGSIDRSSNSASLTISGLTPDDEADYYCQSYDTSNHYVFGTGTKVTVL and write its reported pKd.
10.48
